# study-target: full length human recombinant glucocorticoid receptor (Homo sapiens, UniProt P04150)
# Construct: partially purified full length human recombinant glucocorticoid receptor; purchased Panvera/Invitrogen PV4302
# assay-name: Glucocorticoid Receptor Binding Assay (fluorescence polarization competitor assay, Fluormone GS Far Red tracer)
# Protocol: Glucocorticoid Receptor Binding Assay The ability of the substances to bind to the glucocorticoid receptor was determined with the help of a commercial Glucocorticoid Receptor Competitor Assay far red kit provided by Panvera/Invitrogen (PV4302). This kit is used as provided by the supplier. […]
pKi: −log10 of the molar value.
metric: pKi

Completed entries (count: 3):
>  <molecule>
C[C@@H](c1ccc(-c2ccc(C(=O)O)c(Cl)c2)cc1Cl)[C@](O)(c1ccc(=O)[nH]c1)C(F)(F)F (relative stereo) [Example 179]

>  <result-value>
6.30

$$$$
>  <molecule>
CCn1cc([C@@](O)([C@@H](C)c2ccc(-c3ccc(C(=O)O)c(OC)c3)cc2Cl)C(F)(F)F)ccc1=O (stereo in doubt) [Example 188]

>  <result-value>
7.01

$$$$
>  <molecule>
Cc1cc([C@](O)([C@H](C)c2ccc(Oc3ccc(C(=O)O)c(F)c3)cc2Cl)C(F)(F)F)cn(C)c1=O [Example 249]

>  <result-value>
8.38

$$$$

(I) C[C@H](c1ccc(C(=O)Nc2cccc(C(=O)O)c2)cc1Cl)[C@@](O)(c1ccnc(Cl)c1)C(F)(F)F (stereo in doubt) [Example 41]
(II) CC(c1ccc(Oc2ccc(C(=O)O)c(F)c2)cc1Cl)C(O)(c1ccnc(Cl)c1)C(F)(F)F (stereo not drawn) [Example 83]
(III) CCOC(=O)c1cc(Oc2ccc([C@H](C)[C@](O)(c3cc(C)c(=O)n(C)c3)C(F)(F)F)c(Cl)c2)ccc1Cl (relative stereo) [Example 210]
Order the 3 molecules from highest to lowest pKi. // ordering of labels required in reply
III, II, I
(III: 8.70, II: 8.25, I: 6.54)

====

# study-target: full length human recombinant glucocorticoid receptor (Homo sapiens, UniProt P04150)
# Construct: partially purified full length human recombinant glucocorticoid receptor; purchased Panvera/Invitrogen PV4302
# Sequence (P04150 1-777): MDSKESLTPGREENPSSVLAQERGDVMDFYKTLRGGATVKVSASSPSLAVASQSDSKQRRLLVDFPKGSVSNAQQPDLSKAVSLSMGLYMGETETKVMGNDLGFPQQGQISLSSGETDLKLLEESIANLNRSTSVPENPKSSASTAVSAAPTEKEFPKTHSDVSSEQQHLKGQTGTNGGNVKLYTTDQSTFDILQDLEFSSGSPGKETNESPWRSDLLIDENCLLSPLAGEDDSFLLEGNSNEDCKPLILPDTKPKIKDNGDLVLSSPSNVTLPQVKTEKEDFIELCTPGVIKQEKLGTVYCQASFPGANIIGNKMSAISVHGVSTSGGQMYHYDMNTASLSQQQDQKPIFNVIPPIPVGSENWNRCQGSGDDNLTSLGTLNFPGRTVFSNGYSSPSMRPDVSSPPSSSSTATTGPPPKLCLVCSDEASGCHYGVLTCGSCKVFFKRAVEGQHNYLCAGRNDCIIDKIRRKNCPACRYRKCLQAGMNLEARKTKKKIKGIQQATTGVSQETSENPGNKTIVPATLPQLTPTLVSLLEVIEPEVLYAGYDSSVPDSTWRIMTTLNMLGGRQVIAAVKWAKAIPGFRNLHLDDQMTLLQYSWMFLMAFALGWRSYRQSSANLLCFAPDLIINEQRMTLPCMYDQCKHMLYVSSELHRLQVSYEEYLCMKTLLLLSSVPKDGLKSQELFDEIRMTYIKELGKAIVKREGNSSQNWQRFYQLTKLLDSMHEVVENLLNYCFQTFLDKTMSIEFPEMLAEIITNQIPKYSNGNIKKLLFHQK
# assay-name: Glucocorticoid Receptor Binding Assay (fluorescence polarization competitor assay, Fluormone GS Far Red tracer)
metric: Ki (nM)

>  <compound>
COc1cc(C(=O)O)ccc1Oc1ccc([C@@H](C)[C@@](O)(c2ccnc(Cl)c2)C(F)(F)F)c(Cl)c1 (stereo in doubt)

>  <unit>
nM

>  <result-value>
5.8

$$$$
>  <compound>
CCOC(=O)c1cccc(-c2ccc([C@@H](C)[C@@](O)(c3ccnc(Cl)c3)C(F)(F)F)c(Cl)c2)c1 (stereo in doubt)

>  <unit>
nM

>  <result-value>
150

$$$$
>  <compound>
CCOC(=O)c1cc(-c2ccc([C@H](C)[C@](O)(c3ccc(=O)n(C)c3)C(F)(F)F)c(Cl)c2)ccc1F (stereo in doubt)

>  <unit>
nM

>  <result-value>
3.8

$$$$
>  <compound>
COC(=O)c1cnc(Oc2ccc(C(C)C(O)(c3ccnc(Cl)c3)C(F)(F)F)c(Cl)c2)nc1 (centres unmarked)

>  <unit>
nM

>  <result-value>
40.6

$$$$

(I) C[C@H](c1ccc(-c2ccc(C(=O)O)c(F)c2)cc1Cl)[C@@](O)(c1ccc(C#N)n1C)C(F)(F)F (stereo in doubt)
(II) Cc1cc(C(O)(C(C)c2ccc(Oc3ccc(C(=O)O)cc3)cc2Cl)C(F)(F)F)ccn1 (centres unmarked)
(III) COc1cc(C(=O)O)ccc1COc1ccc([C@@H](C)[C@@](O)(c2cnc(C)cn2)C(F)(F)F)c(Cl)c1 (stereo in doubt)
(IV) COC(=O)c1ccc(OCCOc2ccc(C(C)C(O)(c3cnc(C)cn3)C(F)(F)F)c(Cl)c2)cc1 (centres unmarked)
(V) CC(c1ccc(Oc2ccc(C(=O)O)c(Cl)c2)cc1Cl)C(O)(c1ccnc(Cl)c1)C(F)(F)F (centres unmarked)
Order the 5 compounds from highest to lowest Ki. // ordering of labels required in reply
IV, III, I, V, II
(IV: 119 nM, III: 72.3 nM, I: 24.9 nM, V: 5.1 nM, II: 2.4 nM)

(A) Cc1cnc([C@](O)([C@H](C)c2ccc(OCc3ccc(CC(=O)O)cc3)cc2Cl)C(F)(F)F)cn1 (stereo in doubt)
(B) CC(c1ccc(OCc2cnc(C(=O)O)cn2)cc1Cl)C(O)(c1ccnc(Cl)c1)C(F)(F)F (centres unmarked)
Thinking about recorded Ki values, which is higher, A or B ? The response must carry the label of the picked entry.
A
(A: 33.5 nM, B: 13.6 nM)

====

# study-target: full length human recombinant glucocorticoid receptor (Homo sapiens)
# Construct: partially purified full length human recombinant glucocorticoid receptor; purchased Panvera/Invitrogen PV4302
# assay-name: Glucocorticoid Receptor Binding Assay (fluorescence polarization competitor assay, Fluormone GS Far Red tracer)
pKi: −log10 of the molar value.
metric: pKi

Completed entries (count: 3):
>  <compound>
C[C@H](c1ccc(Oc2ccc(C(=O)O)c(Cl)c2)cc1Cl)[C@@](O)(c1ccc(=O)n(C)c1)C(F)(F)F (stereo in doubt) [Example 154]

>  <pKi>
8.20

$$$$
>  <compound>
COC(=O)c1cnc(COc2ccc(C(C)C(O)(c3ccnc(Cl)c3)C(F)(F)F)c(Cl)c2)cn1 (centres unmarked) [Example 112]

>  <pKi>
8.04

$$$$
>  <compound>
COc1cc(Oc2ccc(C(C)C(O)(c3ccnc(Cl)c3)C(F)(F)F)c(Cl)c2)ccc1C(=O)O (centres unmarked) [Example 86]

>  <pKi>
7.79

$$$$

(I) CC(c1ccc(Oc2ccc(CC(=O)O)cc2)cc1Cl)C(O)(c1ccnc(Cl)c1)C(F)(F)F (centres unmarked) [Example 79]
(II) Cc1cc([C@@](O)([C@@H](C)c2ccc(Oc3ccc(C(=O)O)c(F)c3)cc2Cl)C(F)(F)F)cn(C)c1=O (racemic) [Example 204]
(III) Cc1cc([C@@](O)([C@@H](C)c2ccc(Oc3ccc(C(=O)O)cc3Cl)cc2Cl)C(F)(F)F)cn(C)c1=O (racemic) [Example 215]
Order the 3 compounds from highest to lowest pKi. // ordering of labels required in reply
III, II, I
(III: 9.70, II: 9.40, I: 7.87)

(P) COC(=O)c1ccc(N(C)C(=O)c2ccc([C@@H](C)[C@@](O)(c3ccnc(Cl)c3)C(F)(F)F)c(Cl)c2)cc1 (relative stereo) [Example 28]
(Q) COc1cc(C(=O)O)ccc1COc1ccc([C@@H](C)[C@@](O)(c2ccnc(Cl)c2)C(F)(F)F)c(Cl)c1 (stereo in doubt) [Example 22]
Input pair: P , Q . Output: entry with lower pKi. The response must carry the label of the picked entry.
P
(P: 6.94, Q: 7.97)

====

# study-target: full length human recombinant glucocorticoid receptor (Homo sapiens, UniProt P04150)
# Construct: partially purified full length human recombinant glucocorticoid receptor; purchased Panvera/Invitrogen PV4302
# Sequence (P04150 1-777): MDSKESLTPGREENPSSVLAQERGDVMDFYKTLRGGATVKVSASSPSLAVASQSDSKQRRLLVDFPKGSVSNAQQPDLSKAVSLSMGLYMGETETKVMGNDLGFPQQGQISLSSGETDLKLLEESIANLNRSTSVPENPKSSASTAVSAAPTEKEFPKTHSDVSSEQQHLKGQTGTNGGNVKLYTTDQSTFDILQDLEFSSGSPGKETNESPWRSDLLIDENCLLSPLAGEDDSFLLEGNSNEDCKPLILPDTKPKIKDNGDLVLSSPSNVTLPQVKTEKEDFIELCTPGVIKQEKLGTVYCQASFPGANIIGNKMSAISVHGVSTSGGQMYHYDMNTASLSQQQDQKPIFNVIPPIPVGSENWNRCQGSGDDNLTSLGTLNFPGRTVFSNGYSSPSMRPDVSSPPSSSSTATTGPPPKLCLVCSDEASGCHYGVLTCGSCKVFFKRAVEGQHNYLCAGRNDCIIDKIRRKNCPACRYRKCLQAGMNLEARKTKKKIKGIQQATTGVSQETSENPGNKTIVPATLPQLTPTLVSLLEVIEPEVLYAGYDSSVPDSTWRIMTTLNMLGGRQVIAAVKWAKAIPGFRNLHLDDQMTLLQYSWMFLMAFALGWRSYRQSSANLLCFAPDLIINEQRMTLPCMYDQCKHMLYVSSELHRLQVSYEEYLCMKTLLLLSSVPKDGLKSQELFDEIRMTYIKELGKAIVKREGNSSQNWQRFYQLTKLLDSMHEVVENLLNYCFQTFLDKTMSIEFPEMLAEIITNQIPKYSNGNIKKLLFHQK
# assay-name: Glucocorticoid Receptor Binding Assay (fluorescence polarization competitor assay, Fluormone GS Far Red tracer)
pKi: −log10 of the molar value.
metric: pKi

>  <compound>
Cc1cnc(C(O)(C(C)c2ccc(OCc3ccc(C(=O)O)cc3)cc2Cl)C(F)(F)F)cn1 (centres unmarked)

>  <pKi>
7.67

$$$$
>  <compound>
CC(c1ccc(Oc2ccc(C(=O)O)nc2)cc1Cl)C(O)(c1ccnc(Cl)c1)C(F)(F)F (centres unmarked)

>  <pKi>
7.58

$$$$
>  <compound>
C[C@H](c1cc(Oc2cnc(C(=O)O)cn2)ccc1Cl)[C@@](O)(c1ccnc(Cl)c1)C(F)(F)F (stereo in doubt)

>  <pKi>
5.80

$$$$

(I) COC(=O)c1ccc(Oc2ccc([C@H](C)[C@](O)(c3cc(C)c(=O)n(C)c3)C(F)(F)F)c(Cl)c2)nc1 (relative stereo)
(II) CC(c1ccc(OCc2ccc(C(=O)O)cc2)cc1Cl)C(O)(c1ccncc1)C(F)(F)F (centres unmarked)
Thinking about recorded pKi values, which is higher, I or II ? The response must carry the label of the picked entry.
I
